The following molecules are shown together with reported pIC50 values.
target_desc: hormone-sensitive lipase (HSL) (Rattus norvegicus)
Construct: Isolated rat fat cells were obtained from epididymal adipose tissue; from tissue; host or cells: rat epididymal adipose tissue (isolated fat cells, Wistar rats)
Sequence (P15304 301-1068): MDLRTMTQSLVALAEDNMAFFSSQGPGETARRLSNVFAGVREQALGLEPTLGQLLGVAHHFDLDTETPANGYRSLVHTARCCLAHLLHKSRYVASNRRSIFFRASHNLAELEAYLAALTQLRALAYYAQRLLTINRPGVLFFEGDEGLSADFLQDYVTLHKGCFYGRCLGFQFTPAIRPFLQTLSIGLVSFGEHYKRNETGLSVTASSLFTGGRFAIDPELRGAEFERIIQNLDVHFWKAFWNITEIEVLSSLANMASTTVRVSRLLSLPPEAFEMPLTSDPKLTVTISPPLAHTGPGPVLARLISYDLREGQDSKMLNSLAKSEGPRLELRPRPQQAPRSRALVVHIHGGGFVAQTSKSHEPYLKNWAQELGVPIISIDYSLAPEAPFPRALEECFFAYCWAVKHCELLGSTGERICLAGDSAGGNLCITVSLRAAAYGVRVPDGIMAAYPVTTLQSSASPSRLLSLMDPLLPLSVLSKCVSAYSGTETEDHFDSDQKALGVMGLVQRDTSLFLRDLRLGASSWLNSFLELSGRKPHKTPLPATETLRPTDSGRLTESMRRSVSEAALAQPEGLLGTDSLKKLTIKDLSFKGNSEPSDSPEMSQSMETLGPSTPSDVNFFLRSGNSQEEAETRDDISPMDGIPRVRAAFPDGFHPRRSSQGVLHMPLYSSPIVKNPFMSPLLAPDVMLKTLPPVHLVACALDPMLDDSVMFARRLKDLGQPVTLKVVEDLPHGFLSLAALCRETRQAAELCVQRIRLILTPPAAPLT
experiment_summary: HSL enzyme assay: [3H]trioleoylglycerol hydrolysis by partially purified HSL
Format: biochemical
setup_conditions: partially purified HSL from rat fat cells; [3H]trioleoylglycerol substrate; 37° C., 30 min; read-out: IC50
pIC50: −log10 of the molar value.

[
  {
    "smiles": "COc1nn(-c2ccc(NC(=O)OCc3ccccc3)cc2C)c(=O)o1",
    "target_desc": "hormone-sensitive lipase (HSL) (Rattus norvegicus)",
    "pIC50": 6.00
  },
  {
    "smiles": "COc1nn(-c2ccc(NC(=O)OCc3ccccc3Cl)c(C)c2)c(=O)o1",
    "target_desc": "hormone-sensitive lipase (HSL) (Rattus norvegicus)",
    "pIC50": 6.52
  },
  {
    "smiles": "COc1nn(-c2cccc(NC(=O)Nc3c(OC)cccc3OC)c2)c(=O)o1",
    "target_desc": "hormone-sensitive lipase (HSL) (Rattus norvegicus)",
    "pIC50": 6.22
  },
  {
    "smiles": "COc1nn(-c2ccc(NCC3CCCCC3)cc2)c(=O)o1",
    "target_desc": "hormone-sensitive lipase (HSL) (Rattus norvegicus)",
    "pIC50": 6.40
  }
]

* * *

Listed molecules paired with reported melting point

[
  {
    "smiles": "COc1nn(-c2ccc(NS(=O)(=O)c3cccc(Cl)c3)cc2)c(=O)o1",
    "melting point / °C": 141
  },
  {
    "smiles": "CCCCCCCC(=O)Nc1ccc(-n2nc(OC)oc2=O)cc1C",
    "melting point / °C": 110
  },
  {
    "smiles": "CCCCc1ccc(S(=O)(=O)Nc2ccc(-n3nc(OC)oc3=O)cc2)cc1",
    "melting point / °C": 135
  },
  {
    "smiles": "COc1nn(-c2ccc(NC(=O)CCCCl)c(C)c2)c(=O)o1",
    "melting point / °C": 137
  },
  {
    "smiles": "COc1nn(-c2ccc(NC(=O)OCc3cccnc3)c(C)c2)c(=O)o1",
    "melting point / °C": 232
  },
  {
    "smiles": "COc1nn(-c2ccc([N+](=O)[O-])c(OCc3ccc(F)cc3)c2)c(=O)o1",
    "melting point / °C": 137
  },
  {
    "smiles": "COc1nn(-c2ccc(NC(=O)OCc3ccccc3)cc2Cl)c(=O)o1",
    "melting point / °C": 150
  },
  {
    "smiles": "COc1nn(-c2ccc(NC(=O)c3ccc(C(F)(F)F)cc3)c(OCc3ccccc3)c2)c(=O)o1",
    "melting point / °C": 159
  },
  {
    "smiles": "COc1nn(-c2ccc(NS(=O)(=O)CC(F)(F)F)c(C)c2)c(=O)o1",
    "melting point / °C": 151
  },
  {
    "smiles": "COc1nn(-c2ccc(NC(=O)Oc3ccccc3)c(C)c2)c(=O)o1",
    "melting point / °C": 145
  },
  {
    "smiles": "COc1nn(-c2ccc(NC(C)=CC(C)=O)c(C)c2)c(=O)o1",
    "melting point / °C": 143
  },
  {
    "smiles": "COc1nn(-c2ccc(NS(=O)(=O)C=Cc3ccccc3)c(C)c2)c(=O)o1",
    "melting point / °C": 129
  },
  {
    "smiles": "Cc1cc(-n2nc(OC(C)(C)C)oc2=O)ccc1NC(=O)OCc1ccccc1",
    "melting point / °C": 113
  },
  {
    "smiles": "COc1nn(-c2ccc(N)c(C)c2)c(=O)o1",
    "melting point / °C": 114
  }
]

The reported numbers originate from patent US6369088B2.
